Recorded Potency values for a group of compounds are listed next.
# subject.of.test: Glucocorticoid receptor (Homo sapiens) (UniProt P04150)
# Sequence (P04150 whole entry, looked up): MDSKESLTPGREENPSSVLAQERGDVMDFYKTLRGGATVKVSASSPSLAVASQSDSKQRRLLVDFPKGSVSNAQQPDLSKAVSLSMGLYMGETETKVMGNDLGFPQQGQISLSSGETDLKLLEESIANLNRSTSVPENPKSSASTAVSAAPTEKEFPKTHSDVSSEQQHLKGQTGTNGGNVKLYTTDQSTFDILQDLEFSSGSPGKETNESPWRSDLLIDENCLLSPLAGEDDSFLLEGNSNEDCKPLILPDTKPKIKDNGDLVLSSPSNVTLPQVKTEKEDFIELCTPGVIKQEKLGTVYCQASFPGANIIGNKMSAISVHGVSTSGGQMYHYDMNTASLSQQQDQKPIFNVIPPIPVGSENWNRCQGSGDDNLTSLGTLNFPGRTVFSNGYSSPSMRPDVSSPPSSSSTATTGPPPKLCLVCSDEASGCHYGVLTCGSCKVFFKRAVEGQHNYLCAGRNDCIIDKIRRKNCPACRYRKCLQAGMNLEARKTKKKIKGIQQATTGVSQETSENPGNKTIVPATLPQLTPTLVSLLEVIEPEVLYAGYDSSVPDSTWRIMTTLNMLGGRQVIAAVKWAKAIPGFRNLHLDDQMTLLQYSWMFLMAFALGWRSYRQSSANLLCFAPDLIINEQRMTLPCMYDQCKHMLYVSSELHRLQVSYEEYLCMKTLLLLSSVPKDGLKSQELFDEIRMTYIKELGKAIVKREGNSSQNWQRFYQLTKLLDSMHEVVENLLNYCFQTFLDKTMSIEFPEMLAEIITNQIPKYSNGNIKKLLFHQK
# assay.explanation: GR-EFC Redistribution (AID 451); note: potency is the fitted concentration of half-maximal effect
# measurement.setup: CHO-K1 GR-EFC translocation, beta-gal luminescence, 2 h
Activity calls are given as the source filed them. Calls come from the whole dose curve.
property: Potency

>>> result("CC(=O)O[C@H]1CC[C@@]2(C)[C@@H](CC[C@@]3(C)[C@H]2C(=O)C=C2[C@H]4C[C@](C)(C(=O)OCCN5CCCCC5)CC[C@]4(C)CC[C@@]23C)C1(C)C")
"> 46 µM (inactive)"
>>> result("CC(C)C[C@@H](CC(=O)N[C@@H](CCC(=O)O)CC(=O)O)NC(=O)[C@@H]1CCCC[C@H]1NC(=O)C[C@@H](NC(=O)C[C@H](Cc1ccccc1)NC(=O)[C@@H]1CCCC[C@H]1N)C(C)C")
"> 46 µM (inactive)"
>>> result("CC(C)C[C@@H](CC(=O)N[C@@H](CCCN)CC(=O)N[C@@H]1CCNC[C@H]1C(=O)N[C@H](CC(=O)N[C@@H](CCC(=O)O)CC(=O)O)Cc1ccccc1)NC(=O)[C@@H]1CCCC[C@H]1N")
"> 46 µM (inactive)"

* * *

# Test system: TAB109
# assay.explanation: qHTS profiling for inhibitors of Plasmodium falciparum proliferation (AID 504749); note: nearly all actives have a fitted effect of over 60% in size
# measurement.setup: P. falciparum in erythrocytes, SYBR Green DNA, 72 h; series mostly up to 28.7 µM
Results filed as inconclusive are left out. Calls of active or inactive are those of the source. Calls come from the whole dose curve; as a rule, active = well fitted inhibition curve with a large enough effect; inconclusive = small, poorly fitted or top-dose-only effect; inactive = flat fitted curve, though single readings scatter.
Labels: active, inactive

>>> qualitative_label("COc1ccc(S(=O)(=O)N2c3ccc(Cl)cc3[C@](O)(c3ccccc3Cl)[C@@H]2C(=O)N2CCC[C@H]2C(N)=O)cc1OC")
"inactive"
>>> qualitative_label("CNC(=O)C(N)CSC(C)C1=C(C)c2cc3[n-]c(cc4nc(cc5[n-]c(cc1n2)c(C)c5CCC(=O)O)C(CCC(=O)O)=C4C)c(C)c3C(C)SCC(N)C(=O)NC.[Fe+2] (centres undefined)")
"inactive"
>>> qualitative_label("C=NC(C(=O)NC1C(=O)N2C1SC(C)(C)C2C(=O)O)c1ccccc1 (centres undefined)")
"inactive"
>>> qualitative_label("CC(C)C[C@@H](NC(=O)[C@@H](Cc1ccccc1)NC(=O)c1cnccn1)B(O)O")
"active"
>>> qualitative_label("Cc1ccc(/C=C2/C(=O)C3(C)CCC2C3(C)C)cc1 (centres undefined)")
"inactive"
>>> qualitative_label("C=C1NC(=O)c2cc(CN(C)c3ccc(C(=O)N[C@@H](CCC(=O)O)C(=O)O)s3)ccc2N1")
"inactive"
>>> qualitative_label("CC(c1ncncc1F)[C@](O)(Cn1cncn1)c1ccc(F)cc1F (some centres undefined)")
"inactive"
>>> qualitative_label("CC(C)C(=O)OCC(=O)[C@@]12OC(C3CCCCC3)O[C@@H]1CC1C3CCC4=CC(=O)C=C[C@]4(C)C3[C@@H](O)C[C@@]12C (some centres undefined)")
"active"
>>> qualitative_label("CC(C)(C)NC[C@H](O)CSc1nc(-c2ccc(C(N)=O)s2)cs1")
"inactive"

* * *

# assay.explanation: qHTS Assay for Identification of Small Molecule Agonists for Hypoxia Response Element Signaling Pathway (AID 914)
# measurement.setup: ME-180 (cervical carcinoma) HRE-bla reporter, beta-lactamase ratio, CoCl2, 17 h; active compounds read high
Results filed as inconclusive are left out.
# if value of activation reaches 10%, tag T; if it stays below, tag F

>>> qualitative_label("Cc1cc(C)c(S(=O)(=O)O)c(C)n1")
"T"
>>> qualitative_label("C=CC(O)Cc1c(C)n[nH]c1C (centres undefined)")
"F"
>>> qualitative_label("COCCCn1c(C)nc2c(c1=O)c1nc3ccccc3nc1n2CCc1ccccc1")
"F"
>>> qualitative_label("CC(C)Oc1ccc(/C(O)=C2/C(=O)C(=O)N(CCN(C)C)C2c2ccco2)cc1 (centres undefined)")
"F"
>>> qualitative_label("COc1ccc(CNC(=O)c2c(C)cc(=O)oc2C)cc1OC")
"T"
>>> qualitative_label("Cc1cc(C)c(C#N)c(SCc2[nH]nc3c2C(c2ccccc2)C(C#N)=C(N)O3)n1 (centres undefined)")
"F"
>>> qualitative_label("O=C(c1ccc(=O)oc1)N1CCOCC1")
"F"
>>> qualitative_label("CCOCCSc1nc2c(c(=O)[nH]c(=O)n2C)n1CCCc1ccccc1")
"F"
>>> qualitative_label("CCN(CC)CCN1C(=O)C(O)=C(C(=O)c2cc3ccccc3o2)C1c1cccnc1 (centres undefined)")
"T"
>>> qualitative_label("Oc1ccccc1CNn1cnnc1")
"F"
>>> qualitative_label("CCOC(=O)C(CC(=O)O)N1CCCCC1 (centres undefined)")
"T"
>>> qualitative_label("COC(=O)C1=C(N)Oc2cc(C)oc(=O)c2C1c1ccncc1 (centres undefined)")
"T"
>>> qualitative_label("COc1ccc(C2C(C#N)=C(N)Oc3n[nH]c(C)c32)cc1CSc1ccccn1 (centres undefined)")
"F"
>>> qualitative_label("Cn1c2c(c(=O)n(C)c1=O)C(NC(=O)C(C)(C)C)(C(F)(F)F)C(=O)N2 (centres undefined)")
"F"
>>> qualitative_label("CSc1nc(C)c2c(c1C#N)CCCC2")
"F"
>>> qualitative_label("Cc1nn(CCO)c2c1C(=O)CCC2")
"T"
>>> qualitative_label("CC(=O)N1CC=C2C(C#N)=C(N)C(C#N)(C#N)[C@H](c3ccoc3)[C@H]2C1")
"F"
>>> qualitative_label("COc1ccccc1NC(=O)Nc1nnc(C(C)C)s1")
"T"
>>> qualitative_label("O=C(NC1CCCCC1)[C@H](O)[C@@H](O)C(=O)NC1CCCCC1")
"T"
>>> qualitative_label("Cc1ccccc1C(=O)c1ccc2c(c1)n(C)c(=O)n2C")
"F"
>>> qualitative_label("CCCCOc1ccccc1C(=O)NCCCCCC(=O)O")
"F"
>>> qualitative_label("COc1cc(NC(=O)NC(C)(C(F)(F)F)C(F)(F)F)cc(OC)c1OC")
"F"
>>> qualitative_label("Cc1sc(-n2c(C)ccc2C)c(C#N)c1C")
"F"
